System: CAL-85-1
Details: 72 h
Just a reminder that ties go to NO: only EC50, CellTox Green strictly below 400 nM counts as YES.

Solved entries (count: 5):
COc1cc(Nc2c(C#N)cnc3cc(OCCCN4CCN(C)CC4)c(OC)cc23)c(Cl)cc1Cl [Bosutinib] | NO
O=[N+]([O-])c1ccc2c(c1)S(=O)(=O)C=C2 [Stattic] | NO
C/C(=C\c1csc(C)n1)[C@@H]1C[C@@H]2O[C@]2(C)CCC[C@H](C)[C@H](O)[C@@H](C)C(=O)C(C)(C)[C@@H](O)CC(=O)N1 [Ixabepilone] | NO
CN[C@@H](C)C(=O)N[C@H]1CN(C(=O)CC(C)C)CC[C@H]2CC[C@@H](C(=O)NC(c3ccccc3)c3ccccc3)N2C1=O [AT-406] | YES
CCN(CC)CCCC(C)Nc1ccnc2cc(Cl)ccc12 (configuration not stated) [Chloroquine] | NO

[ask] Threshold test, EC50, CellTox Green < 400 nM: CCNC(=O)c1noc(-c2cc(C(C)C)c(O)cc2O)c1-c1ccc(CN2CCOCC2)cc1 [NVP-AUY922]
[reply] YES

[ask] Threshold test, EC50, CellTox Green < 400 nM: C=CCn1c(=O)c2cnc(Nc3ccc(N4CCN(C)CC4)cc3)nc2n1-c1cccc(C(C)(C)O)n1 [MK1775]
[reply] YES

---

Assignment: determine reported normalised viability for the given compounds.
System: CAL-51
Assay: normalised viability (% of control), CellTiter-Blue; higher = more viable cells (about 100 = DMSO control)
Conditions: 30 nM; incubation time: 72 h
Numbers only, in %.

COc1c2occc2cc2ccc(=O)oc12 [Methoxsalen] | 109

State the recorded normalised viability for every item in the following list.
1. CC(O)(CS(=O)(=O)c1ccc(F)cc1)C(=O)Nc1ccc(C#N)c(C(F)(F)F)c1 (centres undefined) [Bicalutamide]
2. CNC(=O)c1ccccc1Sc1ccc2c(/C=C/c3ccccn3)n[nH]c2c1 [Axitinib]
3. CO[C@@H]1[C@H](N(C)C(=O)c2ccccc2)C[C@H]2O[C@]1(C)n1c3ccccc3c3c4c(c5c6ccccc6n2c5c31)C(=O)NC4 [Midostaurin]

[reply]
[109, 102, 87.9]

---

Tested on: MFM-223
Assay: normalised response (% of control), CellTiter-Glo; higher = more viable cells (100 = DMSO, 0 = benzethonium chloride kill control)
Conditions: incubation time: 72 h
observationType: normalised response (%)
Give bare numbers, in %.

Examples with their reported normalised response follow.
CC(C)n1cnc2c(NCCc3ccc(O)cc3)nc(-c3csc4ccccc34)nc21 [StemRegenin 1] (100 nM) | 104
CCn1c(C(=O)N(C2CC2)C2CC2)cc2c3c(ncn3C)c(Nc3cc(C)n(C)n3)nc21 (100 nM) | 99.8
CNC(=O)c1ccccc1Sc1ccc2c(/C=C/c3ccccn3)n[nH]c2c1 [Axitinib] (100 nM) | 90.5
CC1(COc2ccc3c(c2)ncn3-c2ccc3cccc(N4CCC(N)CC4)c3n2)COC1 [Crenolanib] (100 nM) | 104
CC(=O)[C@]1(O)Cc2c(O)c3c(c(O)c2[C@@H](O[C@H]2C[C@H](N)[C@H](O)[C@H](C)O2)C1)C(=O)c1ccccc1C3=O [Idarubicin] (10 nM) | 107

Then there is this compound:
normalised response reading for CO[C@@H]1[C@H](N(C)C(=O)c2ccccc2)C[C@H]2O[C@]1(C)n1c3ccccc3c3c4c(c5c6ccccc6n2c5c31)C(=O)NC4 [Midostaurin] (100 nM) : 98.8

Provenance of the data: the supplement of paper PMC4862054
